Source: PubChem BioAssay AID1963874

Recorded viability, T/C for the following compounds
System: 253994-281-T-J1-PDC KRAS-mutant spheroids with HUVEC/MSC, viability;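 further: spheroids exposed to agents for seven days before readout; percent of DMSO vehicle control viability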
Test: Anticancer human tumor 253994-281-T-J1-PDC patient-derived colorectal carcinoma cell line growth inhibition [KRAS2]
Conditions: second compound 0.1 µM; first compound 10 µM; active compounds read low
State just the number; it will be interpreted in %.

For orientation, consider the following solved cases.
{"Compound": "COC(=O)c1ccc2c(C(=Nc3ccc(N(C)C(=O)CN4CCN(C)CC4)cc3)c3ccccc3)c(O)[nH]c2c1 + CC1OCC2(CCN(c3cnc(Sc4ccnc(N)c4Cl)c(N)n3)CC2)C1N", "Test target": "253994-281-T-J1-PDC KRAS-mutant spheroids with HUVEC/MSC, viability", "Result unit": "%", "viability, T/C": 70.7}
{"Compound": "CC(C)NCC(C(=O)N1CCN(c2ncnc3c2C(C)CC3O)CC1)c1ccc(Cl)cc1 (stereo not drawn) + C=CC(=O)N1CCN(c2nc(OCC3CCCN3C)nc3c2CCN(c2cccc4cccc(C)c24)C3)CC1CC#N", "Test target": "253994-281-T-J1-PDC KRAS-mutant spheroids with HUVEC/MSC, viability", "Result unit": "%", "viability, T/C": 100}

Turning to the following compound.
Kindly note the recorded viability, T/C for COC(=O)c1ccc2c(C(=Nc3ccc(N(C)C(=O)CN4CCN(C)CC4)cc3)c3ccccc3)c(O)[nH]c2c1 + C=CC(=O)N1CCN(c2nc(OCC3CCCN3C)nc3c2CCN(c2cccc4cccc(C)c24)C3)CC1CC#N , which is 13.4
